measurementNotes: Plasma prodrug and nucleoside pharmacokinetics after single oral dose in cynomolgus monkeys
Format: in vivo
conditionSet: cynomolgus monkey, plasma, single oral 10 mg/kg
valueType: Tmax (h)

compound	valueType	measuredResult
CC(C)OP1(=O)OC[C@H]2O[C@@H](n3ccc(=O)[nH]c3=O)[C@](C)(Cl)[C@@H]2O1 (single isomer, unassigned) [Compound 37 Diastereomer 2]	Tmax	4

----------
measurementNotes: Plasma nucleoside pharmacokinetics after single oral dose in CD-1 mice;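 as to Ms Plasma nucleoside AUC: pmol·h/mL plasma normalized to a 1 µmol/kg dose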
Type: in vivo
conditionSet: single oral dose 10 mg/kg in PEG 200

compound	Ms Plasma nucleoside AUC
CCCCOC(=O)[C@@H](C)NP(=O)(OC[C@H]1O[C@@H](n2ccc(=O)[nH]c2=O)[C@](C)(Cl)[C@@H]1O)Oc1ccccc1 (single isomer, unassigned) [Compound 202i Diastereomer 2]	++++ (1500 < ++++)
C[C@@H](NP(=O)(OC[C@H]1O[C@@H](n2ccc(=O)[nH]c2=O)[C@](C)(Cl)[C@@H]1O)Oc1ccccc1)C(=O)OCc1ccccc1 (single isomer, unassigned) [Compound 205i Diastereomer 2]	++++ (1500 < ++++)

----------
measurementNotes: Stability in intestinal microsomes
Type: in vitro ADME
conditionSet: human intestinal microsomes 1.0 mg/mL, 10 μM, NADPH, 60 min

compound	HIM (1 hr) stability (percent remaining)
CC(C)OC(=O)[C@H](C)NP(=O)(OC[C@H]1O[C@@H](n2ccc(=O)[nH]c2=O)[C@](C)(Cl)[C@@H]1O)Oc1ccccc1 (single isomer, unassigned) [Compound 40ii Diastereomer 2]	++++ (75% < ++++)
CC(C)OC(=O)[C@@H](C)NP(=O)(OC[C@H]1O[C@@H](n2ccc(=O)[nH]c2=O)[C@](C)(Cl)[C@@H]1O)Oc1ccccc1 (single isomer, unassigned; diastereomer 2) [Compound 40i Diastereomer 2]	++++ (75% < ++++)
CC(C)OC(=O)[C@@H](C)NP(=O)(OC[C@H]1O[C@@H](n2ccc(=O)[nH]c2=O)[C@](C)(Cl)[C@@H]1O)Oc1ccccc1 (single isomer, unassigned; diastereomer 1) [Compound 40i Diastereomer 1]	+++ (50% < +++ ≤ 75%)
CC(C)OC(=O)[C@H](C)NP(=O)(OC[C@H]1O[C@@H](n2ccc(=O)[nH]c2=O)[C@](C)(Cl)[C@@H]1O)Oc1ccccc1 (single isomer, unassigned) [Compound 40ii Diastereomer 1]	+++ (50% < +++ ≤ 75%)

----------
measurementNotes: Plasma nucleoside pharmacokinetics after single oral dose in CD-1 mice
Format: in vivo
conditionSet: single oral dose 10 mg/kg in PEG 200
valueType: Ms Plasma nucleoside Cmax

compound	measuredResult
CC(C)OC(=O)[C@@H](C)NP(=O)(OC[C@H]1O[C@@H](n2ccc(=O)[nH]c2=O)[C@](C)(Cl)[C@@H]1O)Oc1ccccc1 (single isomer, unassigned; diastereomer 1) [Compound 40i Diastereomer 1]	+++ (50 < +++ ≤ 100)
CC(C)(CO)C(=O)SCCOP(=O)(NCc1ccccc1)OC[C@H]1O[C@@H](n2ccc(=O)[nH]c2=O)[C@](C)(Cl)[C@@H]1O (single isomer, unassigned) [Compound 54 Diastereomer 1]	+++ (50 < +++ ≤ 100)
CC(C)OC(=O)[C@@H](C)NP(=O)(OC[C@H]1O[C@@H](n2ccc(=O)[nH]c2=O)[C@](C)(Cl)[C@@H]1O)Oc1ccccc1 (single isomer, unassigned; diastereomer 2) [Compound 40i Diastereomer 2]	+++ (50 < +++ ≤ 100)
CC(C)OC(=O)[C@H](C)NP1(=O)OC[C@H]2O[C@@H](n3ccc(=O)[nH]c3=O)[C@](C)(Cl)[C@@H]2O1 (single isomer, unassigned; diastereomer 1) [Compound 38ii Diastereomer 1]	+++ (50 < +++ ≤ 100)
CC(C)OC(=O)[C@@H](C)NP(=O)(OC[C@H]1O[C@@H](n2ccc(=O)[nH]c2=O)[C@](C)(Cl)[C@@H]1O)SC1CCCC1 (single isomer, unassigned; diastereomer 1) [Compound 206i Diastereomer 1]	+++ (50 < +++ ≤ 100)
CCOC(=O)[C@H](CC(C)C)NP(=O)(OC[C@H]1O[C@@H](n2ccc(=O)[nH]c2=O)[C@](C)(Cl)[C@@H]1O)Oc1ccccc1 (single isomer, unassigned; diastereomer 2) [Compound 204ii Diastereomer 2]	++++ (100 < ++++)
CCCCOC(=O)[C@H](C)NP(=O)(OC[C@H]1O[C@@H](n2ccc(=O)[nH]c2=O)[C@](C)(Cl)[C@@H]1O)Oc1ccccc1 (single isomer, unassigned; diastereomer 2) [Compound 202ii Diastereomer 2]	++++ (100 < ++++)
CC(C)OC(=O)[C@H](C)NP(=O)(OC[C@H]1O[C@@H](n2ccc(=O)[nH]c2=O)[C@](C)(Cl)[C@@H]1O)Oc1ccccc1 (single isomer, unassigned) [Compound 40ii Diastereomer 1]	+++ (50 < +++ ≤ 100)

----------
measurementNotes: Liver triphosphate pharmacokinetics after single oral dose in CD-1 mice;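 also: pmol·h/g liver normalized to a 1 µmol/kg dose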
Assay type: in vivo
conditionSet: single oral dose 10 mg/kg in PEG 200
valueType: Ms Liver TP AUC

molecule	valueType	measuredResult
CCCCOC(=O)[C@@H](C)NP(=O)(OC[C@H]1O[C@@H](n2ccc(=O)[nH]c2=O)[C@](C)(Cl)[C@@H]1O)Oc1ccccc1 (single isomer, unassigned) [Compound 202i Diastereomer 2]	Ms Liver TP AUC	++++ (1500 < ++++)
CC(C)OC(=O)[C@H](C)NP(=O)(OC[C@H]1O[C@@H](n2ccc3c(N)ncnc32)[C@](C)(Cl)[C@@H]1O)Oc1ccccc1 (single isomer, unassigned) [Compound 208ii Diastereomer 2]	Ms Liver TP AUC	BLQ
CC(C)OC(=O)[C@H](C)NP1(=O)OC[C@H]2O[C@@H](n3ccc(=O)[nH]c3=O)[C@](C)(Cl)[C@@H]2O1 (single isomer, unassigned; diastereomer 2) [Compound 38ii Diastereomer 2]	Ms Liver TP AUC	+++ (500 < +++ ≤ 1500)
CCOc1nc(N)nc2c1ncn2[C@@H]1O[C@H](COP(=O)(N[C@@H](C)C(=O)OC(C)C)Oc2ccccc2)[C@@H](O)[C@@]1(C)Cl (single isomer, unassigned) [Compound 17ii Diastereomer 2]	Ms Liver TP AUC	BLQ
CC(C)OC(=O)[C@H](C)NP(=O)(OC[C@H]1O[C@@H](n2ccc3c(N)ncnc32)[C@](C)(Cl)[C@@H]1O)Oc1ccccc1 (single isomer, unassigned) [Compound 208ii Diastereomer 1]	Ms Liver TP AUC	BLQ
CC(C)(C)C(=O)SCCOP1(=O)OC[C@H]2O[C@@H](n3ccc(N)nc3=O)[C@](C)(Cl)[C@@H]2O1 (single isomer, unassigned) [Compound 61 Diastereomer 1]	Ms Liver TP AUC	+++ (500 < +++ ≤ 1500)
CCOC(=O)[C@H](C)NP(=O)(OC[C@H]1O[C@@H](n2ccc(=O)[nH]c2=O)[C@](C)(Cl)[C@@H]1O)Oc1ccccc1 (single isomer, unassigned; diastereomer 2) [Compound 203ii Diastereomer 2]	Ms Liver TP AUC	++ (150 < ++ ≤ 500)
CC(C)OP1(=O)OC[C@H]2O[C@@H](n3ccc(=O)[nH]c3=O)[C@](C)(Cl)[C@@H]2O1 (single isomer, unassigned) [Compound 37 Diastereomer 1]	Ms Liver TP AUC	++++ (1500 < ++++)
CCOC(=O)NCC(C)(C)C(=O)SCCOP1(=O)OC[C@H]2O[C@@H](n3ccc(=O)[nH]c3=O)[C@](C)(Cl)[C@@H]2O1 (single isomer, unassigned) [Compound 70 Single Diastereomer]	Ms Liver TP AUC	++++ (1500 < ++++)
CC(C)OC(=O)[C@H](C)NP(=O)(OC[C@H]1O[C@@H](n2ccc(=O)[nH]c2=O)[C@](C)(Cl)[C@@H]1O)Oc1ccccc1 (single isomer, unassigned) [Compound 40ii Diastereomer 1]	Ms Liver TP AUC	+++ (500 < +++ ≤ 1500)
CCOC(=O)[C@H](CC(C)C)NP(=O)(OC[C@H]1O[C@@H](n2ccc(=O)[nH]c2=O)[C@](C)(Cl)[C@@H]1O)Oc1ccccc1 (single isomer, unassigned; diastereomer 1) [Compound 204ii Diastereomer 1]	Ms Liver TP AUC	++ (150 < ++ ≤ 500)
CCCCOC(=O)[C@@H](C)NP(=O)(OC[C@H]1O[C@@H](n2ccc(=O)[nH]c2=O)[C@](C)(Cl)[C@@H]1O)Oc1ccccc1 (single isomer, unassigned) [Compound 202i Diastereomer 1]	Ms Liver TP AUC	++++ (1500 < ++++)
C[C@@]1(Cl)[C@H](O)[C@@H](CO)O[C@H]1n1ccc(=O)[nH]c1=O	Ms Liver TP AUC	BLQ
CCOC(=O)[C@H](C)NP(=O)(OC[C@H]1O[C@@H](n2ccc(=O)[nH]c2=O)[C@](C)(Cl)[C@@H]1O)Oc1ccccc1 (single isomer, unassigned; diastereomer 1) [Compound 203ii Diastereomer 1]	Ms Liver TP AUC	+++ (500 < +++ ≤ 1500)

----------
measurementNotes: Stability in liver microsomes
Format: in vitro ADME
conditionSet: human liver microsomes 1.0 mg/mL, 10 μM, NADPH, 60 min

compound	HLM (1 hr) stability (percent remaining)
CC(C)OC(=O)[C@@H](C)NP(=O)(OC[C@H]1O[C@@H](n2ccc(=O)[nH]c2=O)[C@](C)(Cl)[C@@H]1O)Oc1ccccc1 (single isomer, unassigned; diastereomer 1) [Compound 40i Diastereomer 1]	+ (+ ≤ 25%)
CC(C)OC(=O)[C@H](C)NP(=O)(OC[C@H]1O[C@@H](n2ccc(=O)[nH]c2=O)[C@](C)(Cl)[C@@H]1O)Oc1ccccc1 (single isomer, unassigned) [Compound 40ii Diastereomer 1]	+ (+ ≤ 25%)
